Reference source: patent US20260055083A1

TARGET DESC: APOL1 G2 (Homo sapiens, UniProt O14791, DEL388-389)
Sequence (O14791 with tags, fused parts or gaps DEL388-389): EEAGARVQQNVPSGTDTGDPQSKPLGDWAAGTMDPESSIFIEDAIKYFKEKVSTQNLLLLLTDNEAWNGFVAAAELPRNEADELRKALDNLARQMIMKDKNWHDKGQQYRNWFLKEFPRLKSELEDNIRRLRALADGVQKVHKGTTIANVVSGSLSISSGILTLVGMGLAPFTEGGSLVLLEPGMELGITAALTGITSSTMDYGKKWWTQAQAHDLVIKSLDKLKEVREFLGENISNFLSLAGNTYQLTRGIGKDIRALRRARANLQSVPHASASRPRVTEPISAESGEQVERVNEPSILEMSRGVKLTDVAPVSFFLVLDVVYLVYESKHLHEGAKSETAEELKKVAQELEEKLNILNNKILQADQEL
TEST METHOD NOTES: APOL1 G2 HEK293 rescue of cell death caused by overexpression of APOL1 (CellTiter-Glo)
COND: HEK293/T-REx APOL1 G2 clone #2, doxycycline induction, 17 hours, CellTiter-Glo luminescence; reversal of cell death; geometric mean of at least 2 assay runs
Procedure: A HEK293 clonal cell line overexpressing APOL1 G2 (HEK293/T-REx APOL1 G2/clone #2) was maintained in 1×DMEM-GlutaMax (Gibco, 10569-010) media with 10% tetracycline-free FBS (Takara Bio USA, 631101), 5 μg/mL Blasticidin (Gibco, A1113903), and 100 μg/mL Zeocin (Invitrogen, R25001) in T75 flasks. […] The suspension was gently mixed, and cells were counted using a Countess Cell Counting Chamber (Invitrogen). […] Luminescence was measured on an Envision plate reader. […]
In plain terms, low EC50, meaning strictly below 400 nM, gives YES, and everything else gives NO.

[
  {
    "COMPOUND": "C[C@@H]1C[C@H](COc2ccc(S(=O)(=O)CCS(C)(=O)=O)cc2)CN1C1CCc2ccc(C#N)cc2C1 (single isomer, unassigned) [Compound 32]",
    "ASSIGNED CATEGORY": "YES"
  },
  {
    "COMPOUND": "C[C@@H]1C[C@H](COc2ccc(S(C)(=O)=O)cc2)CN1C1CCc2ccc(Cl)cc2C1 (single isomer, unassigned) [Compound 6]",
    "ASSIGNED CATEGORY": "NO"
  },
  {
    "COMPOUND": "C[C@@H]1C[C@H](COc2ccc(S(C)(=O)=O)cn2)CN1CCc1cc(Cl)cc(C#N)c1 [Compound 12]",
    "ASSIGNED CATEGORY": "YES"
  },
  {
    "COMPOUND": "C[C@@H]1C[C@H](COc2ccc(S(=O)(=O)CCS(C)(=O)=O)cc2)CN1C1CCc2ccc(C#N)cc2C1 (single isomer, unassigned) [Compound 33]",
    "ASSIGNED CATEGORY": "YES"
  },
  {
    "COMPOUND": "C[C@@H]1CN(CC(CO)c2cc(Cl)cc(C#N)c2)C[C@H]1COc1ccc(S(C)(=O)=O)cc1 (single isomer, unassigned) [Compound 128]",
    "ASSIGNED CATEGORY": "NO"
  },
  {
    "COMPOUND": "CC(C(O)c1cc(Cl)cc(C#N)c1)N1C[C@@H](COc2ccc(S(C)(=O)=O)cc2)C[C@H]1C (single isomer, unassigned) [Compound 97]",
    "ASSIGNED CATEGORY": "NO"
  },
  {
    "COMPOUND": "C[C@@H]1C[C@H](COc2ccc(S(C)(=O)=O)cc2)CN1C1CCc2c(C#N)cc(Cl)cc2C1 (single isomer, unassigned) [Compound 7]",
    "ASSIGNED CATEGORY": "YES"
  },
  {
    "COMPOUND": "CS(=O)(=O)C1(c2ccc(OC[C@@H]3CN(CCc4cc(Cl)cc(C#N)c4)CCN3)cc2)CC1 [Compound 110]",
    "ASSIGNED CATEGORY": "YES"
  },
  {
    "COMPOUND": "C[C@@H]1C[C@H](COc2ccc(S(=O)(=O)CCS(C)(=O)=O)cc2)CN1C1CCc2c(C#N)cc(Cl)cc2C1 (single isomer, unassigned) [Compound 47]",
    "ASSIGNED CATEGORY": "NO"
  },
  {
    "COMPOUND": "C[C@@H]1C[C@@H](COc2ccc(S(C)(=O)=O)cc2)CN1CCc1cccc(Cl)c1 [Compound 145]",
    "ASSIGNED CATEGORY": "NO"
  },
  {
    "COMPOUND": "C[C@@H]1C[C@H](COc2ccc(S(=O)(=O)CCCS(C)(=O)=O)cc2)CN1C1CCc2ccc(Cl)cc2C1 (single isomer, unassigned) [Compound 53]",
    "ASSIGNED CATEGORY": "YES"
  },
  {
    "COMPOUND": "C[C@@H]1CN(C(CO)Cc2cc(Cl)cc(C#N)c2)C[C@H]1COc1ccc(S(C)(=O)=O)cc1 (stereo partly shown) [Compound 120]",
    "ASSIGNED CATEGORY": "NO"
  },
  {
    "COMPOUND": "C[C@@H]1CN(CCc2cccc(C#N)c2)C[C@H]1COc1ccc(S(C)(=O)=NCCS(C)(=O)=O)cc1 (single isomer, unassigned) [Compound 69]",
    "ASSIGNED CATEGORY": "YES"
  }
]
